- target_or_test_system: T1, fragment DIR-II (last 27 amino acids of the sequence encoded by the retained intron of DIR) (human)
- T1 construct: also called target fragment DIR-II
- T1 peptide: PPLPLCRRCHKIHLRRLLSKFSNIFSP
- experiment_description: ELISA, DIR-II coated; mAb (1 mg/mL) diluted 1:54k
property_label: absorbance at 450 nm

Use the examples below as a reference point.
- binder: "DIR antibody IR-II-4 (antibody, V domains shown, Monoclonal antibody) VH: QVQLQQSGAELMKPGASVKISCKATGYTFSSYWIEWVKQRPGHGLEWIGEILPGSGSTNYNEKFKGKATFTADTSSNTAYMQLNSLTSEDSAVYYCARTDDGYLSYFAMDYWGQGTSVTVSS VL: DILMTQTPASLAVSLGQRATISCKASQSVDYDGDSYMNWYQQKPGQPPKLLIYAASNLESGIPARFSGSGSGTDFTLNIHPVEEEDAATYYCQQSNEDPRTFGGGTKLEIK"
  property_label: "absorbance at 450 nm"
  reported_result: "0.186 absorbance (450 nm)"
- binder: "DIR antibody IR-II-8 (antibody, V domains shown, Monoclonal antibody) VH: QVQLQQSGAELMKPGASVKISCKATGYTFSNYWIEWVKQRPGHGLEWIGEILPGSGSTNYNEKFKGKATFTADTSSNTAYMQLSSLTSEDSAVYYCARSGMITTRGDYFAMDYWGQGTSVTVSS VL: DIELTQSPASLAVSLGQRATISCKASQSVDYDGESYMNWYQQKPGQPPKLLIYAASNLESGIPARFSGSGSGTDFTLNIHPVEEEDAATYYCQQSNDDPRTFGGGTKLEIK"
  property_label: "absorbance at 450 nm"
  reported_result: "0.138 absorbance (450 nm)"

Now look at this one.
Returns the measured absorbance at 450 nm for the input binder. Input: DIR antibody IR-II-1 (antibody, V domains shown, Monoclonal antibody) VH: QVQLKESGAELMKPGASVKISCKATGYTFSSYWIEWVKQRPGHGLEWIGEILPGSGTTNYNDKFKGKATFTADTSSNTAYMQLSNLTSEDSAVYYCARSYDGYYVFDYWGQGTTLTVSS VL: DIELTQSPASLAVSLGQRATISCKASQSVDYDGDSYMNWYQQKPGQPPKLLIYAASNLESGIPARFSGSGSGTDFTLNIHPVEEEDAATYYCQQSNEDPRTFGGGTKLEIK
0.264 absorbance (450 nm)
